Test system: COLO 205
Assay Notes: NCI tumour cell line growth inhibition, 48 h
The source made the active and inactive calls. Cut-off read from the data, not from the text of the source: active = GI50 up to about 1.1 µM and inactive = higher.
Here, each record is paired with measured GI50 data.
Value Type: GI50

[[record]]
molecule = "CC(=O)OCCOCBr"
result = "> 100 µM (inactive)"

[[record]]
molecule = "Oc1cc(-c2ccc3c(c2)OCO3)nc2cc3c(cc12)OCO3"
result = "31.5 µM (inactive)"

[[record]]
molecule = "CCOC(=O)c1[nH]c2c(OC)n[n+]([O-])cc2c1[N+](=O)[O-]"
result = "25.1 µM (inactive)"

[[record]]
molecule = "Cc1cccc2c(=O)c3cccc(CC(=O)O)c3oc12"
result = "> 100 µM (inactive)"

[[record]]
molecule = "O=C(O)CCCN/C(=C1\\C(=O)C(=O)N(c2ccccc2)C1=O)c1ccccc1"
result = "> 100 µM (inactive)"

[[record]]
molecule = "O=C(O)CC(NC(=O)/C(=C/c1ccccc1O)NC(=O)c1ccccc1)C(=O)O (centres undefined)"
result = "> 100 µM (inactive)"

[[record]]
molecule = "CC/C=C/c1cc2cc[nH]c2c2c1C(C)C[C@@H]2C (some centres undefined)"
result = "18.2 µM (inactive)"

[[record]]
molecule = "CCOc1ccc(-n2c(=O)c3nn4c(=O)n(-c5ccc(OCC)cc5)c(=O)c4nn3c2=O)cc1"
result = "> 100 µM (inactive)"

[[record]]
molecule = "O=C(O)CCC(NC(=O)c1ccc(Nc2nc3ccccc3nc2C(=O)O)cc1)C(=O)O (centres undefined)"
result = "> 100 µM (inactive)"


====

System: SR
Assay Notes: NCI tumour cell line growth inhibition, 48 h
The source made the active and inactive calls. Cut-off read from the data, not from the text of the source: active = GI50 up to about 1.1 µM and inactive = higher.
Parameter: GI50. Scope: all listed entries.
Value Type: GI50

[[record]]
compound = "Cc1cc2ccccc2oc(=O)/c1=N\\Nc1ccccc1"
result = "> 100 µM (inactive)"

[[record]]
compound = "COc1ccc(CC2OC3(CCCCC3)CC3CCCCN32)cc1 (configuration not stated)"
result = "28.8 µM (inactive)"

[[record]]
compound = "Cc1ccc(-c2cn3c(nc4ccccc43)c(/C=C/c3ccco3)n2)cc1"
result = "19.6 µM (inactive)"

[[record]]
compound = "Oc1cc(-c2ccc3c(c2)OCO3)nc2cc3c(cc12)OCO3"
result = "6.35 µM (inactive)"

[[record]]
compound = "C1=C[C@]2(CCC13OCCO3)COc1ccccc12"
result = "29.9 µM (inactive)"

[[record]]
compound = "[N-]=[N+]=Nc1ccc2c(c1)Sc1ccccc1N2CCCCCl"
result = "30.9 µM (inactive)"

[[record]]
compound = "O=C(O)c1ccn(-c2cccc(-n3ccc(C(=O)O)n3)n2)n1"
result = "> 100 µM (inactive)"


====

Tested on: NCI/ADR-RES
Assay Notes: NCI tumour cell line growth inhibition, 48 h
Activity calls are given as the source filed them. No stated cut-off is given here; in the data, active = GI50 up to about 1.1 µM and inactive = higher.
Outcomes: 1 (active), 0 (inactive)

[[record]]
molecule = "CCCCc1c2c(c(C)c3c1C(=O)OC3)Oc1ccccc1O2"
assay_system = "NCI/ADR-RES"
discrete_label = 1

[[record]]
molecule = "N/N=C(\\c1nc2ccc([N+](=O)[O-])cc2nc1O)C(O)c1ccc(Cl)c(Cl)c1 (stereo unspecified)"
assay_system = "NCI/ADR-RES"
discrete_label = 0

[[record]]
molecule = "COc1ccc(/C=C2\\N=C(SC)NC2=O)cc1"
assay_system = "NCI/ADR-RES"
discrete_label = 0

[[record]]
molecule = "Clc1ccc(C2ON=C(c3ccccc3)N2C23CC4CC(CC(C4)C2)C3)cc1Cl (stereo unspecified)"
assay_system = "NCI/ADR-RES"
discrete_label = 0

[[record]]
molecule = "CCC/C(Cl)=N/OC(NC(=O)OCC)(C(F)(F)F)C(F)(F)F"
assay_system = "NCI/ADR-RES"
discrete_label = 0

[[record]]
molecule = "CN(CCNC(=O)c1n[nH]c2c1Cc1ccccc1-2)CCNC(=O)c1n[nH]c2c1Cc1ccccc1-2"
assay_system = "NCI/ADR-RES"
discrete_label = 0

